Could you please report measured AC50 for the items listed next?
Subject of test: Cytochrome P450 2C19 (Homo sapiens, UniProt P33261)
Sequence (P33261 whole entry): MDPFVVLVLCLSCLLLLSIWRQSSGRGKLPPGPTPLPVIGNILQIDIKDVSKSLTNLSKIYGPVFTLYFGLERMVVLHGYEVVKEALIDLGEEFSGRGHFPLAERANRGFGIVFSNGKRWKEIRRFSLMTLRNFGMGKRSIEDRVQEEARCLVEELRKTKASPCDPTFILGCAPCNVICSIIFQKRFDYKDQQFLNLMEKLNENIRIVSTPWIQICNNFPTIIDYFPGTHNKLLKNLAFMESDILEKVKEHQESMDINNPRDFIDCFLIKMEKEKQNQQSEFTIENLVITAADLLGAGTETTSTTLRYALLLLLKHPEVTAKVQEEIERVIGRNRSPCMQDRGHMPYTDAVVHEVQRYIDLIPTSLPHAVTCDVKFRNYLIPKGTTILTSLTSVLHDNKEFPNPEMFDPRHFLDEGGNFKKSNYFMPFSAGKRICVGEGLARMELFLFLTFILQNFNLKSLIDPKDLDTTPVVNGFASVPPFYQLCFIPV
Assay overview: Cytochrome panel assay with activity outcomes. Panel member name: p450-cyp2c19 Compounds with AC50 equal or less than 10 uM are considered active
Type: functional
Test settings: read-out: AC50

Please review the following examples before continuing.
> print(dat)
                                   molecule  quantity.name          reported.value
1  C[S+]([O-])c1ccccc1-c1nc(-c2cc(C(F)(F)F)cc(C(F)(F)F)c2)no1 (stereo unspecified)           AC50  8.91 µM (inconclusive)
2  CCCCCCCCC(=O)NCc1ccc(O)c(OC)c1 [NONIVAMIDE]           AC50  7.94 µM (inconclusive)
3  Cn1cc(C(=O)N/N=C/C(Br)=C\c2ccccc2)ccc1=O           AC50  28.2 µM (inconclusive)

Need AC50 for each of these molecules.
1. CN1CCN(c2ncc3nc(-c4cn(C)c5ccccc45)c(=O)n(CCC#N)c3n2)CC1
2. FC(F)(F)c1ccccc1-c1nc(NC2CC2)c2ccccc2n1
3. CCOC(=O)C(Sc1ncnc2c1sc1nc(N3CCOCC3)c3c(c12)CCCC3)c1ccccc1 (stereo unspecified)

### Response
1: 39.8 µM (inconclusive); 2: 10 µM (inconclusive); 3: 10 µM (inconclusive)

###

Subject of test: Protein Wnt-3a (Mus musculus, UniProt P27467)
Sequence (P27467 whole entry): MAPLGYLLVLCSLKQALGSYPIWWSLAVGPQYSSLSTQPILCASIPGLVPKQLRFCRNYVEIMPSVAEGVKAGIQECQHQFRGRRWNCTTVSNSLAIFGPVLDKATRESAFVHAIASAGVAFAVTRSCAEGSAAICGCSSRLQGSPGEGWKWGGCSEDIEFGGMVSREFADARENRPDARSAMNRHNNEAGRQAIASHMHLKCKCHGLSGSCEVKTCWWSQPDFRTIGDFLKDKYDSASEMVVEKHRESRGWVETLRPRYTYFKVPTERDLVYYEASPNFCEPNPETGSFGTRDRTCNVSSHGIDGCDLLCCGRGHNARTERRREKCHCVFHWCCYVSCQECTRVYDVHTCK
Assay overview: Wnt3a-driven reporter signaling inhibition, dose response, selectivity assay for Gli-SUFU antagonist project, Wnt-LIGHT cells, luminescence (AID 651570);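 note: Wnt-LIGHT reporter cells stimulated with conditioned medium from Wnt3a-producing cells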
Assay type: functional
Test settings: read-out: IC50_Mean
Activity calls are given as the source filed them.
The reply should name one outcome from 1 (active), 0 (inactive)

### Prompt Assay outcome for CCN(CC(=O)Nc1c(F)cccc1F)C(=O)c1cc(S(=O)(=O)N(CC)CC)ccc1N1CCCCC1 : what was it?
### Response 1

### Prompt Assay outcome for CC1CCN(Cc2c(C(=O)N/N=C/c3ccccc3O)nnn2-c2nonc2N)CC1 : what was it?
### Response 0

### Prompt Assay outcome for CC1Cc2cc(S(=O)(=O)N3CCC(C(=O)N4CCN(c5ccccc5F)CC4)CC3)ccc2N1C(=O)C1CC1 (centres undefined) : what was it?
### Response 1

### Prompt Assay outcome for Cc1nn(Cc2noc(C(=O)NC3CCC(C)CC3)n2)c(C)c1Br (centres undefined) : what was it?
### Response 1

###

Subject of test: Protein RecA (Mycobacterium tuberculosis)
Assay overview: Fluorescence Cell-Free Homogeneous Dose Retest to Identify Inhibitors of RecA-Intein Splicing Activity. [Related pubchem assays (depositor defined):AID2097, AID2223, AID489010, AID492950]
Format: functional
Active and inactive are the calls of the source.
The reply should name one outcome from active, inactive

Observe how each entry below is paired with its result.
> print(dat)
                                   compound                           subject.of.test  classification
1  C/C(CC(=O)Nc1cc(C)ccn1)=N\NC(=O)C(=O)NC(C)C  Protein RecA (Mycobacterium tuberculosis)          active
2  CC1=NNC(=O)/C1=C\c1cn(-c2ccccc2)nc1-c1cccs1  Protein RecA (Mycobacterium tuberculosis)          active
3  Cc1ccc(C2=NN(C(=O)CCl)C(c3cccs3)C2)o1 (stereo unspecified)  Protein RecA (Mycobacterium tuberculosis)          active
4      Clc1ccc(Sc2oc(/C=N/n3cnnc3)cc2Br)cc1  Protein RecA (Mycobacterium tuberculosis)          active
5               Nc1c(N2CCCC2)cc(Cl)c2nonc12  Protein RecA (Mycobacterium tuberculosis)          active

### Prompt Assay outcome for Oc1ccc(/N=C/c2ccc(OCc3ccccc3)cc2)cc1 : what was it?
### Response inactive

### Prompt Assay outcome for N#CC1(NC(=O)COC(=O)c2cc(O)c3ccccc3c2O)CCCCC1 : what was it?
### Response active

### Prompt Assay outcome for CCOc1cc(/C=C2\C(=N)N3N=C(S(=O)(=O)CC)SC3=NC2=O)ccc1OC(=O)c1ccco1 : what was it?
### Response active

### Prompt Assay outcome for Cc1nnc(N/N=C\c2ccc(-c3ccccc3[N+](=O)[O-])o2)n1N : what was it?
### Response active

### Prompt Assay outcome for COc1cccc(C(=O)O/N=C(\N)c2ccc([N+](=O)[O-])cc2)c1OC : what was it?
### Response inactive

### Prompt Assay outcome for COc1ccccc1-c1c(C)oc2cc(OC(=O)c3ccco3)ccc2c1=O : what was it?
### Response active
